biological target: N-terminally GST-tagged DLK (catalytic domain amino acid 1-520) (Homo sapiens); construct: N-terminally GST-tagged DLK (catalytic domain amino acid 1-520); experiment: DLK TR-FRET inhibition assay; details: 5 nM GST-DLK, 40 nM HIS-MKK4 K131M substrate, 30 μM ATP, 60 minutes at ambient temperature
Sequence (Q12852 1-520): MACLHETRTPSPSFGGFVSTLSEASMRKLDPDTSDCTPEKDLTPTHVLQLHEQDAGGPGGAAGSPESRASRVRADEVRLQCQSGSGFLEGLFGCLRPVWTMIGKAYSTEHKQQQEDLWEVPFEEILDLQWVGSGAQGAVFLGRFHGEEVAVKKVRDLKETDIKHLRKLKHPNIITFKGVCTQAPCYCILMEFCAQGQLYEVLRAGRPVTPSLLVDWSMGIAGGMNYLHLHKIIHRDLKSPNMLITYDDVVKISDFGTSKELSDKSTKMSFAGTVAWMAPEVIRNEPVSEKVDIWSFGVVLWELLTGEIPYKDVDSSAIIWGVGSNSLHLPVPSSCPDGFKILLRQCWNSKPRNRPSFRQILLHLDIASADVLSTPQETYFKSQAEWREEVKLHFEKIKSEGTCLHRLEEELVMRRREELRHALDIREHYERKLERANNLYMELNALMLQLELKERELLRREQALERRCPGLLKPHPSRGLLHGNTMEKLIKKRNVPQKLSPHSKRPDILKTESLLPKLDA
Property: Ki (nM)

I: CC(C)n1nc(-c2cnc(N)c(OC(F)F)c2)cc1[C@H]1[C@@H]2C[C@H](OC3COC3)C[C@@H]21 [compound 230]
II: CC(C)n1nc(-c2cnc(N)c(C(F)(F)F)c2)cc1[C@@H]1[C@H]2CC[C@H](O)[C@H]21 (single isomer, unassigned) [compound 142]
Which of these two has the smaller recorded Ki: I or II ? Give the label of your selection. I
(I: 3.4 nM, II: 62.2 nM)
